Each recorded value in this set is attributed to ChEMBL document CHEMBL1932960.

Provide the recorded pIC50 for the entries that follow.
Biological target: Melanin-concentrating hormone receptor 2 (Homo sapiens, UniProt Q969V1)
Sequence (Q969V1 whole entry): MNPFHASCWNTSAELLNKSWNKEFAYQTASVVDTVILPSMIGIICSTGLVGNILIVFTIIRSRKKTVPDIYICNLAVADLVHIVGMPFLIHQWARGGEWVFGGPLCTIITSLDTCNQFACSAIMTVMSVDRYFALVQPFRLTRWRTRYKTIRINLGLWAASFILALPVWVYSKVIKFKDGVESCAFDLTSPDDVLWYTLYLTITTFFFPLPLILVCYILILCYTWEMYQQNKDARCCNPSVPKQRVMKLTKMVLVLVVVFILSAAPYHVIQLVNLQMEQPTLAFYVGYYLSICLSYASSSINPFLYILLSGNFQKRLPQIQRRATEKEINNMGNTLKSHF
Test: Antagonist activity at human MCHR2 receptor expressed in CHO cells assessed as inhibition of MCH-stimulated Ca2+ flux preincubated for 10 mins prior to MCH-stimulation by FLIPR assay
Notebook: values listed as pIC50 are -log10 of the concentration (mol/L).

Identify the reported pIC50 for the following entry. CS(=O)(=O)n1c2ccccc2c2cc(CN3CCC4(C=Cc5ccccc54)CC3)ccc21
6.70

Using the record for CCn1c2ccccc2c2cc(NC(=O)N3CCC4(C=Cc5ccccc54)CC3)ccc21 , state its measured pIC50.
4.22

Give recorded pIC50. NC(=O)n1c2ccccc2c2cc(CN3CCC4(C=Cc5ccccc54)CC3)ccc21
8.40

Tell us which pIC50 value is on record for COC(=O)n1c2ccccc2c2cc(CN3CCC4(C=Cc5ccccc54)CC3)ccc21
6.52

Note down pIC50 recorded for CC(=O)N[C@@H]1CC2(CCN(Cc3ccc4[nH]c5ccc(Cl)cc5c4c3)CC2)c2ccccc21
9.00
